# Tested on: oat, wild (wild oat, Avena fatua)
# Experiment description: Test D pre-/postemergence: oat, wild
# Type: in vivo
# Condition label: Preemergence; 62 g ai/ha; scale 0 to 100
Known Plant response rating, Oat, Wild of a selection of molecules

Guide cases for Plant response rating, Oat, Wild, answers given:
Would you kindly share the measured Plant response rating, Oat, Wild for Cc1nn(-c2ccc(C(F)(F)F)cc2)nc1Oc1ccnc(C(F)(F)F)c1 ?
25

Would you kindly share the measured Plant response rating, Oat, Wild for FC(F)(F)COc1nn(-c2ccc(C(F)(F)F)cc2)nc1Cc1ccnc(C(F)(F)F)c1 ?
20

Would you kindly share the measured Plant response rating, Oat, Wild for Cc1nn(-c2ccc(C(F)(F)F)c(F)c2)nc1Oc1ccnc(C(F)(F)F)c1 ?
30

Would you kindly share the measured Plant response rating, Oat, Wild for CCc1nn(-c2ccc(C(F)(F)F)cc2)nc1Cc1ccnc(C(F)(F)F)c1 ?
15

Continuing:
Would you kindly share the measured Plant response rating, Oat, Wild for Cc1nn(-c2ccc(F)c(C(F)(F)F)c2)nc1Cc1ccnc(C(F)(F)F)c1 ?
25
